- test.target: Leukotriene A-4 hydrolase (Homo sapiens)
- Sequence (P09960 whole entry): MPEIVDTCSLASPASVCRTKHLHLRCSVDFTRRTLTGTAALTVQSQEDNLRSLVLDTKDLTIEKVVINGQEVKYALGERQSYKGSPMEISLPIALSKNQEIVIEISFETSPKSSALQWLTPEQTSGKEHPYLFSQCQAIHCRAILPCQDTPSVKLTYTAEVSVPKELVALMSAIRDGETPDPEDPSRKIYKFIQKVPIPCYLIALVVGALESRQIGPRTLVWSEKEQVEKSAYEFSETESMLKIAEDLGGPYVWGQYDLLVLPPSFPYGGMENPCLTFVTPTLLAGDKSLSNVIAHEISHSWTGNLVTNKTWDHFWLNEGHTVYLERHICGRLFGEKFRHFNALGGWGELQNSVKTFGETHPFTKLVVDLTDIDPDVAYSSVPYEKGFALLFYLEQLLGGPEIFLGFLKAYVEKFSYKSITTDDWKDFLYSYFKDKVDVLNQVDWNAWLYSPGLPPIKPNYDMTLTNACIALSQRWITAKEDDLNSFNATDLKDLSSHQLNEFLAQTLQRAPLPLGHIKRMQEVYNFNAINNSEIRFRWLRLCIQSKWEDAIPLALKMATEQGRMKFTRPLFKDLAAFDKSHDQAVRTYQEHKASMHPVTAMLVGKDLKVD
- assay.protocol: Inhibition of peptidase activity of human recombinant LTA4H expressed in Escherichia coli BL21-AI/pRARE
Examples of compounds with documented pIC50 follow.
Note on units: pIC50 is unitless, being -log10 of a concentration expressed in mol/L.

Some solved cases for reference:
OC(c1ccncc1)c1ccc(OCCN2CCCC2)cc1 (centres undefined): 3.69
c1ccc(NCc2cccnc2)cc1: 2.88
c1ccc(CNc2ccc(OC[C@H]3CCCN3)cc2)cc1: 6.68
O=C(O)C1CCN(CCOc2ccc3[nH]ccc3c2)CC1: 2.83
CNCc1ccccc1-c1cccs1: 2.97

Lookup: Let me know recorded pIC50 for Oc1ccc(CCc2cc(O)cc(O)c2)cc1 [DIHYDRORESVERATROL] , thanks.
Found: 3.84

Lookup: Look up and report measured pIC50 for this entry: `c1cc2cc(OCCN3CCCC3)ccc2[nH]1`
Found: 3.49
